# measurement notes: NCI Yeast Anticancer Drug Screen. Data for the sgs1 strain (AID 173);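 note: 0% = growth of vehicle-only control cultures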
# condition context: S. cerevisiae sgs1 mutant, at 11.0 µM, hits give high values
The panel holds about 79,000 compounds, 15% with a hit somewhere; the sample as a whole holds those more often.
I'd appreciate it if you could supply growth inhibition values for the items below.
Note: unit % is implicit; provide only the numeric part.

Notebook: COCCCN(Cc1cc(OC)c(OC)c(OC)c1)C(=S)Nc1cccc(Cl)c1 , growth inhibition read as -21

Notebook: CC1=CCCC2C1(C)CCC(C)C2(C)Cc1cc(O)ccc1O (centres undefined) , growth inhibition read as 79

Notebook: CN(CC(=O)O)c1ccc(/C=C/c2ccnc3ccccc23)cc1 , growth inhibition read as 4

Notebook: CCOP1(=O)C=C(Sc2ccc([N+](=O)[O-])cc2[N+](=O)[O-])C(C)(C)O1 (centres undefined) , growth inhibition read as 13

Notebook: S=c1[nH]c2c(Cl)c(Cl)c(Cl)c(Cl)c2[nH]1 , growth inhibition read as 54

Notebook: CN(C)c1ccc(N=Nc2ccccn2)cc1 , growth inhibition read as 25

Notebook: Nc1nc2c(c(=O)[nH]1)NC(CCNc1ccc(C(=O)O)cc1)CN2 (centres undefined) , growth inhibition read as -4

Notebook: CCCCOC(=O)CSSCC(=O)OCCCC , growth inhibition read as 18

Notebook: NNC(=S)Nc1cccc2ccccc12 , growth inhibition read as -19

====

I'd appreciate it if you could supply growth inhibition values for the items below.
# measurement notes: NCI Yeast Anticancer Drug Screen. Data for the mlh1 strain (AID 171);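 note: 0% = growth of vehicle-treated control cultures of the same strain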
# condition context: S. cerevisiae mlh1 strain growth inhibition; at 100.0 µM; hits give high values
This is part of a sample that, as a whole, favours compounds with a hit. Of some 79,000 tested, about 15% had one in any assay. Calls of active or inactive are those of the source. Cut-off read from the data, not from the text of the source: active = growth inhibition above about 70%; inactive = the rest.

Notebook: COc1ccc(N=Nc2ccc3oc(=O)c(C(=O)Nc4ccccc4)cc3c2)cc1 , growth inhibition read as 91% (active)

Notebook: Cc1ccccc1NC(=O)Cc1csc(N/N=C2\NC(=O)/C(=C/c3cccc([N+](=O)[O-])c3)S2)n1 , growth inhibition read as 51% (inactive)

Notebook: CNc1nc(C)nc2c1cnn2-c1ccc([N+](=O)[O-])cc1 , growth inhibition read as -1% (inactive)

Notebook: CC1(C)C(C=O)=CCC1CC(N)=O (stereo not given) , growth inhibition read as 96% (active)

Notebook: CC(C)(O)c1ccccc1C(c1ccccc1)c1ccccc1 , growth inhibition read as 9% (inactive)

====

# measurement notes: NCI Yeast Anticancer Drug Screen. Data for the wt1 strain (AID 149);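 note: 0% = growth of vehicle-treated wt1 cultures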
# condition context: S. cerevisiae wt1 strain (SPY 50644) growth inhibition; at 11.0 µM; hits give high values
This is part of a sample that, as a whole, favours compounds with a hit. Of some 79,000 tested, about 15% had one in any assay.
metric: growth inhibition (%)
Note: unit % is implicit; provide only the numeric part.

Notebook: COc1cc(N(C)C)ccc1/C=C\c1ccnc2ccccc12 , growth inhibition read as -7

Notebook: OC(CN1CCCCC1)c1cc(Cl)c(Cl)c(Cl)c1 (stereo not given) , growth inhibition read as 6

Notebook: COC(=O)c1cccc(C)c1C(=O)c1c(C)cc(C)cc1C , growth inhibition read as -2

Notebook: C/C=C/[P+](c1ccccc1)(c1ccccc1)c1ccccc1 , growth inhibition read as 54

Notebook: O=C(Nc1cccc(C(F)(F)F)c1)Oc1ccc(Cl)cc1C(=O)c1ccccc1 , growth inhibition read as 76

Notebook: c1ccc2c(c1)Cn1c-2nc2ccccc21 , growth inhibition read as -28

Notebook: NNC(=S)Nc1cccc2ccccc12 , growth inhibition read as -24

Notebook: Cc1ccc(S(=O)(=O)N/N=C/C2(c3ccccc3)c3ccccc3-c3ccccc32)cc1 , growth inhibition read as 34

Notebook: CC(=O)OCC1OC(O[C@H]2C=C[C@@H](C(=O)OCc3ccccc3)n3c(=O)n(-c4ccccc4)c(=O)n32)C(OC(C)=O)C(OC(C)=O)C1OC(C)=O (stereo not given in full) , growth inhibition read as -3

Notebook: C=Cc1cnc([N+](=O)[O-])n1C , growth inhibition read as 19

Notebook: CCCCCCSc1nc(COC(=O)NC)c(COC(=O)NC)n1C , growth inhibition read as -2

Notebook: Cn1ncc2cc3c(Nc4ccc(Cl)cc4)cccc3nc21 , growth inhibition read as -2

Notebook: C=C1N(C)c2ccc(Cl)cc2C1(C)C , growth inhibition read as -30

Notebook: Oc1ccccc1N=Cc1ccc(Cl)cc1 , growth inhibition read as 10

Notebook: O=C(O)c1ccccc1.[Ag] , growth inhibition read as 99
